Each item that follows carries a reported Stale Flavor.
Test: Quality of sweetness: sensory attributes scored on a 15-point unstructured line scale
Type: in vivo
Design: key: scores on a 15-point unstructured line scale
Settings: mean score, 15-point line scale, two replications, room temperature
measured_property: Stale Flavor

| compound | numeric_value |
| --- | --- |
| OC[C@H]1O[C@@](CO)(O[C@H]2O[C@H](CO)[C@@H](O)[C@H](O)[C@H]2O)[C@@H](O)[C@@H]1O [Sucrose, sucrose, reference compound] | 0.50 |
| CC1(C(=O)O)CCCC2(C)C3CCC4(OC5OC(CO)C(O)C(OC6OC(CO)C(O)C(O)C6O)C5OC5OC(CO)C(O)C(O)C5O)CC3(CCC12)CC4(C)O (stereo not drawn) | 0.63 |
| CC1=CC23CCC4C(C)(C(=O)O)CCCC4(C)C2CCC1(OC1OC(CO)C(O)C(OC2OC(CO)C(O)C(O)C2O)C1OC1OC(CO)C(O)C(O)C1O)C3 (stereo not drawn) | 0.77 |
| C=C1C[C@@]23CC[C@H]4[C@@](C)(CCC[C@@]4(C)C(=O)OC4OC(CO)C(O)C(O)C4O)[C@@H]2CC[C@]1(OC1OC(CO)C(O)C(OC2OC(CO)C(O)C(O)C2O)C1OC1OC(CO)C(O)C(O)C1O)C3 (stereo partly drawn) [Reb. A, Rebaudioside A] | 0.89 |
| CC1(C(=O)OC2OC(CO)C(O)C(O)C2O)CCCC2(C)C3CCC4(OC5OC(CO)C(O)C(OC6OC(CO)C(O)C(O)C6O)C5OC5OC(CO)C(O)C(O)C5O)CC3(CCC12)CC4(C)O (stereo not drawn) | 1.01 |
| CC1=CC23CCC4C(C)(C(=O)OC5OC(CO)C(O)C(O)C5O)CCCC4(C)C2CCC1(OC1OC(CO)C(O)C(OC2OC(CO)C(O)C(O)C2O)C1OC1OC(CO)C(O)C(O)C1O)C3 (stereo not drawn) | 1.21 |

----------
Assay: Quality of sweetness: sensory attributes scored on a 15-point unstructured line scale
Type: in vivo
Settings: mean score, 15-point line scale, two replications, room temperature; same superscript letter = not significantly different (95%)
Procedure: The quality of sweetness of the rebaudioside A derivative products 1 (II), 2 (IV), 3 (III), and 4 (V) also was evaluated and compared to that of rebaudioside A, rebaudioside B, rebaudioside F, and sucrose at room temperature. For each attribute, the sweeteners received a score based on a 15-point unstructured line scale. […] A multiple comparison test, Fisher's LSD 5%, aided in the comparative analysis of the scores.
Marks after values point to notes of the source that are not given here.
Each item that follows carries a reported Overall Flavor.
measured_property: Overall Flavor

| compound | measured_property | result |
| --- | --- | --- |
| OC[C@H]1O[C@@](CO)(O[C@H]2O[C@H](CO)[C@@H](O)[C@H](O)[C@H]2O)[C@@H](O)[C@@H]1O [Sucrose, sucrose, reference compound] | Overall Flavor | 10.73^a |
| CC1(C(=O)OC2OC(CO)C(O)C(O)C2O)CCCC2(C)C3CCC4(OC5OC(CO)C(O)C(OC6OC(CO)C(O)C(O)C6O)C5OC5OC(CO)C(O)C(O)C5O)CC3(CCC12)CC4(C)O (stereo not drawn) | Overall Flavor | 3.14^c |
| CC1(C(=O)O)CCCC2(C)C3CCC4(OC5OC(CO)C(O)C(OC6OC(CO)C(O)C(O)C6O)C5OC5OC(CO)C(O)C(O)C5O)CC3(CCC12)CC4(C)O (stereo not drawn) | Overall Flavor | 10.02^a |
